system: OVCAR3; assay: MTT assay, ovary (OVCAR3); type: cell-based
Listed here: items and their measured IC50 of ovary (OVCAR3).

{"Compound": "CC=C(C)C(=O)OCC1(C)C(O)CCC2(C)C1CCC1(C)C2CC=C2C3CC(C)(C)C(O)C(O)C3(CO)C(O)CC21C (stereo not shown)", "Assay target": "OVCAR3", "IC50 of ovary (OVCAR3)": 18}
{"Compound": "CC=C(C)C(=O)OCC1(C)C(O)CCC2(C)C1CCC1(C)C2CC=C2C3CC(C)(C)C(OC(=O)C(C)=CC)C(O)C3(CO)C(O)CC21C (stereo not shown)", "Assay target": "OVCAR3", "IC50 of ovary (OVCAR3)": 6.5}
{"Compound": "CC=C(C)C(=O)OCC1(C)C(O)CCC2(C)C1CCC1(C)C2CC=C2C3CC(C)(C)C(O)C(OC(=O)C(C)=CC)C3(CO)C(O)CC21C (stereo not shown)", "Assay target": "OVCAR3", "IC50 of ovary (OVCAR3)": 23}
{"Compound": "CC=C(C)C(=O)OCC1(C)C(OC(=O)C(C)=CC)CCC2(C)C1CCC1(C)C2CC=C2C3CC(C)(C)C(OC(=O)C(C)=CC)C(O)C3(CO)C(O)CC21C (stereo not shown)", "Assay target": "OVCAR3", "IC50 of ovary (OVCAR3)": 27}
{"Compound": "CC=C(C)C(=O)OCC1(C)C(O)CCC2(C)C1CCC1(C)C2CC=C2C3CC(C)(C)C(O)C(OC(=O)C(C)=CC)C3(COC(=O)C(C)=CC)C(O)CC21C (stereo not shown)", "Assay target": "OVCAR3", "IC50 of ovary (OVCAR3)": 25}
{"Compound": "CC=C(C)C(=O)OCC1(C)C(O)CCC2(C)C1CCC1(C)C2CC=C2C3CC(C)(C)C(OC(=O)C(C)=CC)C(O)C3(COC(=O)C(C)=CC)C(O)CC21C (stereo not shown)", "Assay target": "OVCAR3", "IC50 of ovary (OVCAR3)": 9}
